Experiment: Hepatic microsomal stability, mouse
Settings: female, CD-1, mouse, liver microsomes, pH 7.4
READOUT KIND: half-life at 1 μM (min)
One number for each entry, in min.

Below, 2 molecules whose answers are already recorded.
>  <MOLECULE>
Cc1cccc(Nc2nc(-c3ccc(-c4ccccc4)cc3)cs2)n1

>  <half-life at 1 μM, min>
290

$$$$
>  <MOLECULE>
Cc1ccnc(Nc2nc(-c3ccc(-c4ccccn4)s3)cs2)c1

>  <half-life at 1 μM, min>
26

$$$$

Now consider a different molecule.
Give the measured half-life at 1 μM of C(=N\Nc1ccc(-c2cnco2)cc1)/c1ccncc1 [IND54304, reference compound] .
34

* * *

Assay: Hepatic microsome stability, human
Type: in vitro ADME
Settings: pH 7.4; human liver microsomes, 1 μM
READOUT KIND: half-life at 1 μM

Entry `Cc1cccc(Nc2nc(-c3ccc(-c4ccccc4)cc3)cs2)n1` : reported half-life at 1 μM = ?
> 1 h

* * *

Assay: Multidose (three-day) pharmacokinetics in liquid diet in FVB mice
Conditions: FVB, mouse, in vivo, 80 mg/kg, Plasma Concentration (Css), three-day dosing in liquid diet, plasma
For each record, write down the corresponding log10 of concentration at 3 days.
Could you please treat all values as log10 of concentration at 3 days in nM?

>  <MOLECULE>
Cc1cccc(Nc2nc(-c3ccc(-c4ccccc4)cc3)cs2)n1

>  <log10 of concentration at 3 days>
3.74

$$$$
>  <MOLECULE>
Cc1cccc(Nc2nc(-c3cc4ccccc4o3)cs2)n1

>  <log10 of concentration at 3 days>
3.33

$$$$
>  <MOLECULE>
Cc1ccc(Nc2nc(-c3cc(-c4ccccc4)no3)cs2)nc1

>  <log10 of concentration at 3 days>
3.45

$$$$
>  <MOLECULE>
c1ccc2cc(Nc3nc(-c4cc5ccccc5o4)cs3)ncc2c1

>  <log10 of concentration at 3 days>
3.19

$$$$
>  <MOLECULE>
Cc1ccnc(Nc2nc(-c3ccncc3)cs2)c1

>  <log10 of concentration at 3 days>
2.83

$$$$

Please look at the items below and tell me log10 of concentration at 3 days for each one, in order.
1. COc1ccc(-c2csc(Nc3cc4ccccc4cn3)n2)cc1OC
2. COc1ccc(-c2csc(Nc3ccc4ccccc4n3)n2)cc1OC

1: 1.78; 2: 1.48

* * *

Can you tell me efflux ratio for the items I'm about to list?
Test system: P-gp (MDR1)
Assay: in vitro
Conditions: dog, MDCK-MDR1
Numbers only.

Solved cases (4 shown):
>  <MOLECULE>
Cc1ccc(Nc2nc(-c3cc(-c4ccccc4)no3)cs2)nc1

>  <RECORDED VALUE>
1.2

$$$$
>  <MOLECULE>
c1ccc2cc(Nc3nc(-c4ccncc4)cs3)ncc2c1

>  <RECORDED VALUE>
1.5

$$$$
>  <MOLECULE>
Cc1ccnc(Nc2nc(-c3ccncc3)cs2)c1

>  <RECORDED VALUE>
1.3

$$$$
>  <MOLECULE>
COc1ccc(-c2csc(Nc3ccc4ccccc4n3)n2)cc1OC

>  <RECORDED VALUE>
1

$$$$

Consider the additional compound presented here.
What reported efflux ratio corresponds to `Cc1cccc(Nc2nc(-c3cc4ccccc4o3)cs2)n1` on P-gp (MDR1)?
0.9

# credit: patent US20140329863A1
